Source of measurements: patent US12497392B2

Would you kindly list pIC50 for each of these compounds?
# assaySystem: EP300 BRD (Homo sapiens (Human))
# Sequence (Q09472 1049-1156): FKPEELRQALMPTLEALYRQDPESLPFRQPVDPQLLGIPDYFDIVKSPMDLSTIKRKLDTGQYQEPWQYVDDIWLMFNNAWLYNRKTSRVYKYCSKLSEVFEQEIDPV
# experimentalDetails: EP300 AlphaScreen bromodomain (BRD) binding test
Numbers only, as −log10 of the molar value.

CCO[C@H]1CC[C@H](n2c([C@@H]3CCOC(=O)N3c3ccc(Cl)c(F)c3)nc3cc(-c4c(C)noc4C)ccc32)CC1
8.68

# per-item lookup of pIC50; items listed below
1. COc1cccc(-c2nc3cc(-c4c(C)noc4C)ccc3n2[C@H]2CC[C@H](OC)CC2)c1-c1ccc(F)cc1
2. CO[C@H]1CC[C@H](n2c([C@H]3COCC(=O)N3c3ccc(F)c(F)c3)nc3cc(-c4c(C)noc4C)ccc32)CC1
3. CO[C@H]1CC[C@H](n2c([C@@H]3CCOCC(=O)N3c3ccc(F)c(F)c3)nc3cc(-c4c(C)noc4C)ccc32)CC1

8.02
8.77
8.66
